src = patent US4851518A

Assay: Serum levels PO in squirrel monkeys (AUCs, 0-6h.), cylinder cup method
Assay type: in vivo
Details: monkey, in vivo, po, 50 mg/kg, oral single dose 50 mg./kg., 50 mg./ml. in vehicle
Experimental: The serum levels of the compounds of this invention were determined in male mice (Carworth CF-1) weighing 18-20 g. each, and squirrel monkeys weighing ca. 1 kg. each. Groups of six mice were given aqueous solutions of the drugs intravenously as single bolus doses of 100 mg./kg., and groups of six monkeys were given the drugs orally as a single dose of 20, or 50 mg./kg. […]

smilesRepr	unit	AUC at 6 h
CC[C@H]1OC(=O)C[C@@H](O)[C@H](C)[C@@H](O[C@@H]2O[C@H](C)[C@@H](O[C@H]3C[C@@](C)(O)[C@@H](O)[C@H](C)O3)[C@H](N(C)C)[C@H]2O)[C@@H](CC=O)C[C@@H](C)C(=O)/C=C/C(C)=C/[C@@H]1CO[C@@H]1O[C@H](C)[C@@H](O)[C@@H](OC)[C@H]1OC	ng·h/mL	15600

###

Assay: Serum levels IV in mice (AUCs, 0-3h.), cylinder cup method
Type: in vivo, male mice (Carworth CF-1)
Conditions: mouse, in vivo; intravenous single bolus 100 mg./kg., 10 mg./ml. in vehicle
Let's look at some molecules and their measured AUC at 3 h.

molecule	AUC at 3 h [ng·h/mL]
CC[C@H]1OC(=O)C[C@@H](OC(C)=O)[C@H](C)[C@@H](O[C@@H]2O[C@H](C)[C@@H](O[C@H]3C[C@@](C)(O)[C@@H](OC(=O)CC(C)C)[C@H](C)O3)[C@H](N(C)C)[C@H]2OC(C)=O)[C@@H](CC=NN2CCS(=O)(=O)CC2)C[C@@H](C)C(=O)/C=C/C(C)=C/[C@@H]1COC(C)=O	154000
CC[C@H]1OC(=O)C[C@@H](OC(C)=O)[C@H](C)[C@@H](O[C@@H]2O[C@H](C)[C@@H](O[C@H]3C[C@@](C)(O)[C@@H](OC(=O)CC(C)C)[C@H](C)O3)[C@H](N(C)C)[C@H]2O)[C@@H](CC=NN2CCS(=O)(=O)CC2)C[C@@H](C)C(=O)/C=C/C(C)=C/[C@@H]1CO[C@@H]1O[C@H](C)[C@@H](O)[C@@H](OC)[C@H]1OC	67600
CC[C@H]1OC(=O)C[C@@H](OC(C)=O)[C@H](C)[C@@H](O[C@@H]2O[C@H](C)[C@@H](O[C@H]3C[C@@](C)(O)[C@@H](OC(=O)CC(C)C)[C@H](C)O3)[C@H](N(C)C)[C@H]2O)[C@@H](CC=O)C[C@@H](C)C(=O)/C=C/C(C)=C/[C@@H]1CO [V, reference compound]	28300

###

Experiment: Serum levels IV in mice (AUCs, 0-3h.), cylinder cup method
Assay type: in vivo, male mice (Carworth CF-1)
Conditions: mouse, in vivo; intravenous single bolus 100 mg./kg., 10 mg./ml. in vehicle
Protocol: The serum levels of the compounds of this invention were determined in male mice (Carworth CF-1) weighing 18-20 g. each, and squirrel monkeys weighing ca. 1 kg. each. […] Serum was removed and put into another test tube in an ice water bath, until antibiotic levels were determined by a cylinder cup method, with either Bacillus subtilis ATCC 6633, or Micrococcus luteus ATCC 9431 as the test organisms. […]

smilesRepr	AUC at 3 h (ng·h/mL)
CC[C@H]1OC(=O)C[C@@H](OC(C)=O)[C@H](C)[C@@H](O[C@@H]2O[C@H](C)[C@@H](O[C@H]3C[C@@](C)(O)[C@@H](OC(=O)CC(C)C)[C@H](C)O3)[C@H](N(C)C)[C@H]2OC(C)=O)[C@@H](CC=NN2CCS(=O)(=O)CC2)C[C@@H](C)C(=O)/C=C/C(C)=C/[C@@H]1CO	80500
CC[C@H]1OC(=O)C[C@@H](OC(C)=O)[C@H](C)[C@@H](O[C@@H]2O[C@H](C)[C@@H](O[C@H]3C[C@@](C)(O)[C@@H](OC(=O)CC(C)C)[C@H](C)O3)[C@H](N(C)C)[C@H]2O)[C@@H](CC=NN2CCS(=O)(=O)CC2)C[C@@H](C)C(=O)/C=C/C(C)=C/[C@@H]1COC(=O)Cc1ccccc1	43400

###

Test: Serum levels PO in squirrel monkeys (AUCs, 0-6h.), cylinder cup method
Assay type: in vivo
Conditions: monkey, in vivo, po, 20 mg/kg, oral single dose 20 mg./kg., 10 mg./ml. in vehicle

compound	unit	AUC at 6 h
CC[C@H]1OC(=O)[C@H](C)[C@@H](O[C@H]2C[C@@](C)(OC)[C@@H](O)[C@H](C)O2)[C@H](C)[C@@H](O[C@@H]2O[C@H](C)C[C@H](N(C)C)[C@H]2O)[C@](C)(O)C[C@@H](C)C(=O)[C@H](C)[C@@H](O)[C@]1(C)O [I, Erythromycin, reference compound]	ng·h/mL	4800

###

Assay: Serum levels IV in mice (AUCs, 0-3h.), cylinder cup method
Type: in vivo, male mice (Carworth CF-1)
Details: mouse, in vivo; intravenous single bolus 100 mg./kg., 10 mg./ml. in vehicle
Lab note: cut-off is 50000 ng·h/mL. Strictly less in AUC at 3 h is 1.0. Exactly 50000 ng·h/mL or more is 0.0.

molecule	labelClass
CC[C@H]1OC(=O)C[C@@H](OC(C)=O)[C@H](C)[C@@H](O[C@@H]2O[C@H](C)[C@@H](O[C@H]3C[C@@](C)(O)[C@@H](OC(=O)CC(C)C)[C@H](C)O3)[C@H](N(C)C)[C@H]2OC(C)=O)[C@@H](CC=O)C[C@@H](C)C(=O)/C=C/C(C)=C/[C@@H]1COC(C)=O	0.0
CC[C@H]1OC(=O)[C@H](C)[C@@H](O[C@H]2C[C@@](C)(OC)[C@@H](O)[C@H](C)O2)[C@H](C)[C@@H](O[C@@H]2O[C@H](C)C[C@H](N(C)C)[C@H]2O)[C@](C)(O)C[C@@H](C)C(=O)[C@H](C)[C@@H](O)[C@]1(C)O [I, Erythromycin, reference compound]	1.0
CC[C@H]1OC(=O)C[C@@H](O)[C@H](C)[C@@H](O[C@@H]2O[C@H](C)[C@@H](O[C@H]3C[C@@](C)(O)[C@@H](O)[C@H](C)O3)[C@H](N(C)C)[C@H]2O)[C@@H](CC=O)C[C@@H](C)C(=O)/C=C/C(C)=C/[C@@H]1CO[C@@H]1O[C@H](C)[C@@H](O)[C@@H](OC)[C@H]1OC	1.0
CC[C@H]1OC(=O)C[C@@H](OC(C)=O)[C@H](C)[C@@H](O[C@@H]2O[C@H](C)[C@@H](O[C@H]3C[C@@](C)(O)[C@@H](OC(=O)CC(C)C)[C@H](C)O3)[C@H](N(C)C)[C@H]2O)[C@@H](CC=NN2CCS(=O)(=O)CC2)C[C@@H](C)C(=O)/C=C/C(C)=C/[C@@H]1CO	1.0
CC[C@H]1OC(=O)C[C@@H](OC(C)=O)[C@H](C)[C@@H](O[C@@H]2O[C@H](C)[C@@H](O[C@H]3C[C@@](C)(O)[C@@H](OC(=O)CC(C)C)[C@H](C)O3)[C@H](N(C)C)[C@H]2O)[C@@H](CC=NN2CCS(=O)(=O)CC2)C[C@@H](C)C(=O)/C=C/C(C)=C/[C@@H]1COC(C)=O	0.0
CC[C@H]1OC(=O)C[C@@H](OC(C)=O)[C@H](C)[C@@H](O[C@@H]2O[C@H](C)[C@@H](O[C@H]3C[C@@](C)(O)[C@@H](OC(=O)CC(C)C)[C@H](C)O3)[C@H](N(C)C)[C@H]2O)[C@@H](CC=O)C[C@@H](C)C(=O)/C=C/C(C)=C/[C@@H]1CO[C@@H]1O[C@H](C)[C@@H](O)[C@@H](OC)[C@H]1OC [IV, 3-O-Acetyl-4"-O-iso-valeryltylosin, reference compound]	0.0

###

Assay: Serum levels PO in squirrel monkeys (AUCs, 0-6h.), cylinder cup method
Format: in vivo
Settings: monkey, serum, po, 50 mg/kg, oral single dose 50 mg./kg., 50 mg./ml. in vehicle
parameterMeasured: AUC at 6 h (ng·h/mL)

compound	parameterMeasured	measured
CC[C@H]1OC(=O)C[C@@H](O)[C@H](C)[C@@H](O[C@@H]2O[C@H](C)C[C@H](N(C)C)[C@H]2O)[C@@H](CC=O)C[C@@H](C)C(=O)/C=C/[C@]2(C)O[C@H]2[C@@H]1C [II, Rosaramicin, reference compound]	AUC at 6 h	6600

###

Assay: Serum levels PO in squirrel monkeys (AUCs, 0-6h.), cylinder cup method
Assay type: in vivo
Conditions: monkey, serum, po, 20 mg/kg, oral single dose 20 mg./kg., 20 mg./ml. in PEG 40 castor oil/lactic acid vehicle
Rule: AUC at 6 h under 5000 ng·h/mL gives Condition not met, otherwise Condition met.

molecule	labelClass
CC[C@H]1OC(=O)C[C@@H](OC(C)=O)[C@H](C)[C@@H](O[C@@H]2O[C@H](C)[C@@H](O[C@H]3C[C@@](C)(O)[C@@H](OC(=O)CC(C)C)[C@H](C)O3)[C@H](N(C)C)[C@H]2OC(C)=O)[C@@H](CC=NN2CCS(=O)(=O)CC2)C[C@@H](C)C(=O)/C=C/C(C)=C/[C@@H]1CO	Condition not met
CC[C@H]1OC(=O)C[C@@H](OC(C)=O)[C@H](C)[C@@H](O[C@@H]2O[C@H](C)[C@@H](O[C@H]3C[C@@](C)(O)[C@@H](OC(=O)CC(C)C)[C@H](C)O3)[C@H](N(C)C)[C@H]2O)[C@@H](CC=NN2CCS(=O)(=O)CC2)C[C@@H](C)C(=O)/C=C/C(C)=C/[C@@H]1CO	Condition not met
CC[C@H]1OC(=O)C[C@@H](OC(C)=O)[C@H](C)[C@@H](O[C@@H]2O[C@H](C)[C@@H](O[C@H]3C[C@@](C)(O)[C@@H](OC(=O)CC(C)C)[C@H](C)O3)[C@H](N(C)C)[C@H]2O)[C@@H](CC=NN2CCS(=O)(=O)CC2)C[C@@H](C)C(=O)/C=C/C(C)=C/[C@@H]1COC(C)=O	Condition not met
CC[C@H]1OC(=O)C[C@@H](O)[C@H](C)[C@@H](O[C@@H]2O[C@H](C)C[C@H](N(C)C)[C@H]2O)[C@@H](CC=O)C[C@@H](C)C(=O)/C=C/[C@]2(C)O[C@H]2[C@@H]1C [II, Rosaramicin, reference compound]	Condition not met
CC[C@H]1OC(=O)C[C@@H](OC(C)=O)[C@H](C)[C@@H](O[C@@H]2O[C@H](C)[C@@H](O[C@H]3C[C@@](C)(O)[C@@H](OC(=O)CC(C)C)[C@H](C)O3)[C@H](N(C)C)[C@H]2O)[C@@H](CC=NN2CCS(=O)(=O)CC2)C[C@@H](C)C(=O)/C=C/C(C)=C/[C@@H]1CO[C@@H]1O[C@H](C)[C@@H](O)[C@@H](OC)[C@H]1OC	Condition met
